The origin of these recorded values is PubChem BioAssay.

# Test system: Wnt5a (protein binding on small-molecule microarray)
# assay-overview: Wnt5a binders on small-molecule microarray, primary screen, biophysical, 635/667 nm fluorescence (AID 1142);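 note: fluorescence read at 667 nm with signal to noise per printed feature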
# study-conditions: 635 nm fluorescence, higher = more signal
Decision: composite z-score compared against 0.1; not below it gives 1 (yes), below it gives 0 (no).

{"columns": ["molecule", "cat"],
 "data": [
  ["COC(=O)[C@@H]1CC[C@H](C)[C@@H](c2ccc(C)cc2)N1C(=O)c1ccc(C=NOC[C@@H](O)[C@H]2O[C@@H]3OC(C)(C)O[C@@H]3[C@H]2O)cc1", "0 (no)"],
  ["COC(=O)[C@H](C)NC(=O)CCC1CC(OC(=O)NCc2ccc3c(c2)OCO3)CC2(CCCC(COC(=O)NCCC(C)C)O2)O1 (some centres not stated)", "1 (yes)"],
  ["CC(C)=CCCC(C)=CCON=C1C[C@@H](O)[C@@H](O)[C@@H]2[C@@H]3C(=O)N(C4CCCCC4)C(=O)[C@@H]3CC[C@H]12", "1 (yes)"],
  ["CCOC(=O)[C@H](Cc1ccccc1)NC(=O)CCC1CC(OC(=O)NCCc2ccc(F)cc2)CC2(CCCC(COC(=O)NCCOc3ccccc3)O2)O1 (some centres not stated)", "1 (yes)"],
  ["COc1ccc(COC(=O)NN=C2C[C@@H](O)[C@@H](O)[C@@H]3[C@@H]4C(=O)N(Cc5ccc6c(c5)OCO6)C(=O)[C@@H]4CC[C@H]23)cc1", "0 (no)"],
  ["CCOC(=O)[C@H](Cc1ccccc1)NC(=O)CCC1CC(OC(=O)NCc2cccc3ccccc23)CC2(CCCC(COC(=O)NCCOc3ccccc3)O2)O1 (some centres not stated)", "0 (no)"]
]}

---

# experimental-target: Torsin-1A (Homo sapiens)
# assay-overview: small-molecule binders of mutant TOR1A in lysate, primary screen, cell lysate, small-molecule microarray, COS7 lysate, 635/667 nm fluorescence (AID 1150);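 note: score pools 667 nm emission and signal to noise measuring lysate protein binding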
# study-conditions: COS7 hTOR1A mutant lysate, 635 nm fluorescence, higher = more signal

{"columns": ["molecule", "experimental-target", "composite z-score"],
 "data": [
  ["CCN1C(=O)[C@H]2[C@H]3[C@H](O)[C@H](O)CC(=NOC[C@@H](O)[C@H]4O[C@@H]5OC(C)(C)O[C@@H]5[C@H]4O)[C@@H]3CC[C@H]2C1=O", "Torsin-1A (Homo sapiens)", 0.205],
  ["CO[C@H]1COC(=O)CCC[C@H](C)[C@@H](OC)COC(=O)CC=C[C@@H]1C", "Torsin-1A (Homo sapiens)", 0.861],
  ["CC=CC1=C(CO)[C@H](O)[C@H]2O[C@H]2[C@@H]1O", "Torsin-1A (Homo sapiens)", 0.131],
  ["C=C(C)C(=O)OC[C@H]1CN2[C@@H](CC[C@@H](C)[C@@H]2c2ccc(Br)cc2)C(=O)O1", "Torsin-1A (Homo sapiens)", 0.0188],
  ["COC(=O)CC=C[C@@H](C)[C@@H](C=NOC[C@@H](O)COCc1ccco1)NS(=O)(=O)c1ccc(C)cc1", "Torsin-1A (Homo sapiens)", 1.24],
  ["COC(=O)CC=C[C@@H](C)[C@@H](C=NOC[C@@H](O)[C@H]1O[C@@H]2OC(C)(C)O[C@@H]2[C@H]1O)OC", "Torsin-1A (Homo sapiens)", 0.162],
  ["CCOC(=O)[C@H](Cc1ccccc1)NC(=O)CCC1CC(OC(=O)NCc2cccc3ccccc23)CC2(CCCC(COC(=O)NCCc3ccc(Cl)cc3)O2)O1 (stereo partly drawn)", "Torsin-1A (Homo sapiens)", 0.244],
  ["CC(CCN1CCc2nc(-c3ccccc3)c(-c3ccccc3)cc2C1)=NO[C@H](C)c1cn([C@H](CO)Cc2ccccc2)nn1", "Torsin-1A (Homo sapiens)", 1.23]
]}
